test system: SF-295 CNS; assay: NCI-60 one-dose screen, 48 h (100 = growth as untreated, 0 = no growth, -100 = all killed); details: 10 µM unless noted
The panel holds about 83,000 compounds, 20% with a hit somewhere; the sample as a whole holds those more often.
growth: recorded values

Molecule: CN(C)CCN1C(=O)c2cccc3c(-c4ccc(-c5nc6c7ccccc7c7ccccc7c6[nH]5)cc4)ccc(c23)C1=O
Display unit: %
growth: 105
--
Molecule: O=C(CC12CC3CC(CC(C3)C1)C2)NCCOCCOCCNC(=O)c1cc2c(o1)C(=O)c1ccccc1C2=O
Display unit: %
growth: -94.2
--
Molecule: Cc1[nH]c(-c2nc3ccccc3[nH]2)c(C)c1C(=O)N1CCOCC1
Display unit: %
growth: 96
--
Molecule: COc1ccc(-c2c(N)n[nH]c2-c2ccccc2O)cc1OC
Display unit: %
growth: 101
--
Molecule: COc1cc(C2CC(=O)Nc3n[nH]c(-c4ccccc4)c32)cc(OC)c1OC (stereo unspecified)
Display unit: %
growth: 75.5
--
Molecule: CN(C)c1ccc(/C=C2\C=C(c3ccccc3)N(CCc3ccccc3)C2=O)cc1
Display unit: %
growth: 53.9
--
Molecule: COc1ccc(-n2nnc(C(=O)NCCc3c[nH]c4ccc(F)cc34)c2C)cc1
Display unit: %
growth: 102
--
Molecule: CC[C@]1(O)C[C@H]2CN(CCc3c([nH]c4ccccc34)[C@@](C(=O)OC)(c3cc4c(cc3OC)N(C=O)[C@H]3[C@@](O)(C(=O)OC)[C@H](OC(C)=O)[C@]5(CC)C=CCN6CC[C@]43[C@@H]65)C2)C1
Display unit: %
growth: 13.6
--
Molecule: N#C/C(=C\c1ccc(Br)cc1)n1nnc2cc(Cl)c(Cl)cc21
Display unit: %
growth: 65.8
--
Molecule: Nc1ccc2c(S(=O)(=O)O)ccc(S(=O)(=O)O)c2c1
Display unit: %
growth: 105
--
Molecule: COc1ccc(-c2nc3ncccn3c2/C=C/C(=O)c2cc(OC)c(OC)c(OC)c2)cc1
Display unit: %
growth: -31.5
--
Molecule: Cc1nc(Nc2ccc(NC(=S)Nc3ccccc3)cc2)nc2nc(Nc3cccc(Cl)c3)[nH]c(=O)c12
Display unit: %
growth: 116
--
Molecule: CCN(CC)CCNc1ccc(C)c2sc3cc(C)ccc3c(=O)c12
Display unit: %
growth: 72.9
--
Molecule: Cc1ccc(Nc2ccc(Nc3ccc(C)cc3S(=O)(=O)O)c3c2C(=O)c2ccccc2C3=O)c(S(=O)(=O)O)c1
Display unit: %
growth: 101
--
Molecule: NC(=O)c1c(NC(=O)c2ccc(C(F)(F)F)cc2Cl)sc2c1CCC(=O)C2
Display unit: %
growth: -27.2
--
Molecule: COc1ccccc1NC(=O)Nc1ccc(-c2nc3ccccc3o2)cc1
Display unit: %
growth: 96.8
--
Molecule: O[C@H]1CO[C@H]2[C@@H]1OC[C@@H]2Oc1ccc(Nc2nc(Nc3ccc(F)c(Cl)c3)ncc2F)cc1Cl
Display unit: %
growth: 92.1
--
Molecule: Cc1ccc(S(=O)(=O)N(CC[C@@H]2C[C@H]2c2cc3ccccc3o2)C(=O)NC2CCCCC2)cc1
Display unit: %
growth: 110
--
Molecule: OC(c1cccc(OCc2ccccc2)c1)c1nnc(-c2ccccc2)o1 (stereo unspecified)
Display unit: %
growth: 64
--
Molecule: Cc1nc2ccccc2c(/C=C/c2ccc(Cl)cc2)c1C(=O)/C=C/c1ccc(Cl)cc1
Display unit: %
growth: -65.6
--
Molecule: CCCCn1c(=O)[nH]c(N)c(C(c2ccc(F)cc2)c2c(N)[nH]c(=O)n(CCCC)c2=O)c1=O
Display unit: %
growth: 56.8
--
Molecule: C[C@@H]1C(=O)N(C[C@H](Cc2ccccc2)NC(=O)OCc2ccccc2)[C@]1(Cc1ccccc1)C(=O)OC(C)(C)C
Display unit: %
growth: 69.6
--
Molecule: O=C(CCl)N1c2cccc3cccc(c23)N(C(=O)CCl)C1c1cn(-c2ccccc2)nc1-c1cccc([N+](=O)[O-])c1
Display unit: %
growth: 103
--
Molecule: COc1cc2c(=O)n(CCCn3ccnc3)c3c4cc5c(cc4ccc3c2cc1OC)OCO5
Display unit: %
growth: -18.4
--
Molecule: NC(N)=N/N=C/CO
Display unit: %
growth: 103
--
Molecule: CCNCCNc1cc(-c2ccc(C(=O)OC)cc2)c(C#N)c2nc3ccccc3n12
Display unit: %
growth: -62.1
--
Molecule: CS(=O)(=O)c1ccc(-c2nc3cc(Cl)ccc3n2CC(=O)NO)cc1
Display unit: %
growth: 98
--
Molecule: CNC(=O)c1cc(Oc2ccc3nc(Nc4cc(Cl)cc(Cl)c4)ccc3c2)ccn1
Display unit: %
growth: 47.1
--
Molecule: C=CC(=O)Nc1cccc(C)c1Nc1cc(-c2cccnc2Cc2c(C)c(OC)cc(OC)c2C)ncn1
Display unit: %
growth: 43
--
Molecule: Clc1ccc(-c2nc(NCCc3ccccc3)nc3c(NCCc4ccccc4)cnn23)cc1
Display unit: %
growth: 56.4
--
Molecule: O=[N+]([O-])c1ccc(-c2cc3c(Nc4ccc(Cl)c(C(F)(F)F)c4)ncnc3s2)cc1
Display unit: %
growth: -6.39

---

test system: MDA-MB-231 breast; experiment: NCI-60 one-dose screen, 48 h; conditions: 10 µM unless noted
The panel holds about 83,000 compounds, 20% with a hit somewhere; the sample as a whole holds those more often. The source made the active and inactive calls. The calls were made as follows: active = growth percent below 10; inactive = the rest.
Outcome codes: active, inactive

Molecule: O=C1c2ccccc2C2(c3ccc(O)cc3)c3ccccc3Oc3cccc1c32 (centres undefined)
Target system: MDA-MB-231 breast
Class name: inactive

Molecule: N[C@H]1CCC[C@@H]1NCCCCN1C(=O)c2cccc3cccc(c23)C1=O
Target system: MDA-MB-231 breast
Class name: inactive

Molecule: CC/C=C/[C@@H]1C=C[C@@H]2CCC[C@H]2[C@@H]1CC[C@H](O)[C@H](C)N
Target system: MDA-MB-231 breast
Class name: active

Molecule: Oc1ccccc1-c1nc2ccccn2c1NCCN1CCOCC1
Target system: MDA-MB-231 breast
Class name: inactive

Molecule: Cc1cn(C2CCCCC2)c(=O)[nH]c1=O
Target system: MDA-MB-231 breast
Class name: inactive

Molecule: O=c1[nH]nc(-c2ccc(Cl)cc2)cc1Cc1ccccc1
Target system: MDA-MB-231 breast
Class name: inactive

Molecule: CCOc1ccc2nc(-c3cccc(OCC(=O)NC(C)C)c3)nc(Nc3ccc(-c4cn[nH]c4)cc3)c2c1
Target system: MDA-MB-231 breast
Class name: active

Molecule: Cn1cc(-c2ccc3ncc(-c4ccc(CC(=O)Nc5cc(C(C)(C)C)nn5C)cc4)cc3c2)cn1
Target system: MDA-MB-231 breast
Class name: inactive

Molecule: COc1ccc(-c2cc(-c3cc(OC)ccc3OC)[nH]c(=O)c2C#N)cc1
Target system: MDA-MB-231 breast
Class name: inactive

Molecule: Clc1ccc(/C=N\N=c2\scc(-c3ccc(Cl)cc3)n2/N=C/c2ccc(Cl)cc2)cc1
Target system: MDA-MB-231 breast
Class name: inactive

Molecule: Nc1ccn(C2OC(F)(CO)C(O)C2F)c(=O)n1 (centres undefined)
Target system: MDA-MB-231 breast
Class name: inactive

Molecule: O=c1[nH]c(=O)n(C2CC(O)C(CO)O2)cc1CO (centres undefined)
Target system: MDA-MB-231 breast
Class name: inactive

Molecule: CCN(CC)CC(=O)Nc1cccc(C(=O)OC(C)C)c1
Target system: MDA-MB-231 breast
Class name: inactive

Molecule: COc1ccc(-c2cn(-c3cccc(C(=O)/C=C/c4cc(OC)c(OC)c(OC)c4)c3)c(=O)[nH]2)cc1
Target system: MDA-MB-231 breast
Class name: inactive

---

growth: recorded values
test system: MOLT-4 leukemia; assay: NCI-60 one-dose screen, 48 h (100 = growth as untreated, 0 = no growth, -100 = all killed); details: 10 µM unless noted
This is part of a sample that, as a whole, favours compounds with a hit. Of some 83,000 tested, about 20% had one in any assay. Active and inactive are the calls of the source. How the source made its calls: active means growth percent below 10; inactive means the rest.

Compound: CCNCCNc1cc(-c2ccc(C#N)cc2)c(C#N)c2nc3ccccc3n12
Target system: MOLT-4 leukemia
growth: 51.2% (inactive)
--
Compound: COc1cc2c(cc1OC)-c1ccc3cc4c(cc3c1N(CCCn1ccnc1)C2)OCO4
Target system: MOLT-4 leukemia
growth: 2.11% (active)
--
Compound: O=c1cc(-c2ccc(OCc3ccccc3)cc2)oc2c(I)c(OCc3ccccc3)cc(OCc3ccccc3)c12
Target system: MOLT-4 leukemia
growth: 113% (inactive)
--
Compound: C#CC[C@H](N)C(=O)O
Target system: MOLT-4 leukemia
growth: 102% [20 µM] (inactive)
--
Compound: COc1ccc(C2CC(c3cnccn3)=NN2)cc1OC (centres undefined)
Target system: MOLT-4 leukemia
growth: 72% (inactive)
--
Compound: Cc1cnc(Nc2ccc(N3CCN(C)CC3)cc2)nc1Nc1ccc(Cl)c(NS(=O)(=O)C(C)(C)C)c1
Target system: MOLT-4 leukemia
growth: 10% (active)
--
Compound: Cc1ccc(S(=O)(=O)NN/C(N)=N\S(=O)(=O)c2cc(C)c(Cl)cc2SCc2ccccc2)cc1
Target system: MOLT-4 leukemia
growth: 61.3% (inactive)
--
Compound: O=C1c2ccccc2C2(c3ccc(O)cc3)c3ccccc3Oc3cccc1c32 (centres undefined)
Target system: MOLT-4 leukemia
growth: 24.8% (inactive)
--
Compound: CC(=O)c1cc2c(o1)C(=O)c1ccccc1C2=O
Target system: MOLT-4 leukemia
growth: -43% (active)
--
Compound: CCCCN1CCN(c2ccc3nc(-c4ccc5nc(-c6ccc(OCC)c(OCC)c6)[nH]c5c4)[nH]c3c2)CC1
Target system: MOLT-4 leukemia
growth: -0.133% (active)
--
Compound: CCCCCOC(=O)c1cccc(NC(=O)CN(CC)CC)c1
Target system: MOLT-4 leukemia
growth: 87.5% (inactive)
--
Compound: Cc1nc(Nc2ccc(NC(=S)Nc3ccccc3)cc2)nc2nc(Nc3ccc(S(=O)(=O)O)cc3)[nH]c(=O)c12
Target system: MOLT-4 leukemia
growth: 89.7% (inactive)
--
Compound: CCn1nc(C#Cc2c(C)ccc3c(Nc4ccc(Cl)cc4)nccc23)c2c(N)ncnc21
Target system: MOLT-4 leukemia
growth: 20.9% (inactive)
--
Compound: Cc1[nH]c(-c2nc3ccccc3[nH]2)c(C)c1C(=O)N1CCc2sccc2C1
Target system: MOLT-4 leukemia
growth: 93.3% (inactive)
--
Compound: C=C1C(=O)O[C@H]2[C@H]1CC/C(COC(=O)/C=C\C(=O)NCc1ccc(Cn3c(=O)sn(-c4ccc(C#N)cc4)c3=O)cc1)=C\CC[C@@]1(C)O[C@@H]21
Target system: MOLT-4 leukemia
growth: -32.3% (active)
--
Compound: CC(C)(O)c1cccc(F)c1
Target system: MOLT-4 leukemia
growth: 107% (inactive)
--
Compound: Cn1nnnc1-c1ccc(N)cc1
Target system: MOLT-4 leukemia
growth: 92.5% (inactive)
--
Compound: CC(C)OC(=O)NNC(=O)c1ccncc1
Target system: MOLT-4 leukemia
growth: 102% (inactive)
--
Compound: COc1cc(-c2cccc([N+](=O)[O-])c2)c(-c2nc(-c3ccccc3)c(-c3ccccc3)n2C2CC2)cc1OC
Target system: MOLT-4 leukemia
growth: 25.9% (inactive)
--
Compound: O=C1C2=C(CCN(Cc3ccccc3)C2)N2CCN=C2N1Cc1ccc(C(F)(F)F)cc1
Target system: MOLT-4 leukemia
growth: 59.8% (inactive)
--
Compound: Nc1ccn(C2OC(F)(CO)C(O)C2F)c(=O)n1 (centres undefined)
Target system: MOLT-4 leukemia
growth: 18.8% (inactive)
--
Compound: C[N+](C)(C)CCOC(OCC[N+](C)(C)C)(c1ccccc1)c1ccccc1
Target system: MOLT-4 leukemia
growth: 102% (inactive)
--
Compound: Cl.Fc1c[c-]c(-c2ccccn2)c(F)c1.[Pt].c1ccc(P(c2ccccc2)C([PH+](c2ccccc2)c2ccccc2)[PH+](c2ccccc2)c2ccccc2)cc1
Target system: MOLT-4 leukemia
growth: 13.2% (inactive)
--
Compound: CCO/C=N/C1=C(C#N)C(c2ccc(OC)cc2)c2c(c3ccccc3n(C)c2=O)O1 (centres undefined)
Target system: MOLT-4 leukemia
growth: 103% (inactive)
--
Compound: CSc1ccc(Cl)c(C(=O)Nc2sccc2C(N)=O)c1
Target system: MOLT-4 leukemia
growth: 125% (inactive)
--
Compound: Cc1c(Cl)cccc1NS(=O)(=O)c1ccccc1
Target system: MOLT-4 leukemia
growth: 102% (inactive)
--
Compound: COc1cc2nc(Nc3ccc(F)cc3)nc(N)c2cc1OC
Target system: MOLT-4 leukemia
growth: 65.3% (inactive)
--
Compound: OC(CBr)c1ccnc2ccccc12 (centres undefined)
Target system: MOLT-4 leukemia
growth: 93.8% (inactive)
--
Compound: CCCN1CCN(c2ccc3nc(-c4ccc5nc(-c6ccc(OCC)c(OCC)c6)[nH]c5c4)[nH]c3c2)CC1
Target system: MOLT-4 leukemia
growth: 3.28% (active)

Data credit: PubChem BioAssay (NCI)
